molecular target: Low molecular weight phosphotyrosine protein phosphatase (Homo sapiens); assay: Inhibition of human LMW-PTP IF2 using p-nitrophenylphosphate as substrate by spectrophotometry
Sequence (P24666 whole entry): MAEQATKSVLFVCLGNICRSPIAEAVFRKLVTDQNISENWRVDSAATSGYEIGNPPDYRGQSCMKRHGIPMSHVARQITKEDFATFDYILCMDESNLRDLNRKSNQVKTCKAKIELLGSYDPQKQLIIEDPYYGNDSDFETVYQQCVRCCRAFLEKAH
pIC50: −log10 of the molar value.
RESULT_TYPE: pIC50

I: CCO[C@H]1CC[C@]2(C)[C@H]3CC=C4[C@@H]5CC(C)(C)CC[C@]5(C(=O)O)CC[C@@]4(C)[C@]3(C)CC[C@H]2C1(C)C
II: CC1(C)CC[C@]2(C(=O)O)CC[C@]3(C)C(=CC[C@@H]4[C@@]5(C)CC[C@H](OC(=O)/C=C/c6ccccc6)C(C)(C)[C@@H]5CC[C@]43C)[C@@H]2C1
Prompt: Just tell me: smaller pIC50 value, I or II ? Write down the label of the entry you select.
Completion: I

----------
target: Tyrosine-protein phosphatase non-receptor type 1 (Homo sapiens); experiment: Mixed-type inhibition of purified human GST-tagged PTP-1B using p-nitrophenylphosphate as substrate by double-reciprocal plot method
Sequence (P18031 whole entry): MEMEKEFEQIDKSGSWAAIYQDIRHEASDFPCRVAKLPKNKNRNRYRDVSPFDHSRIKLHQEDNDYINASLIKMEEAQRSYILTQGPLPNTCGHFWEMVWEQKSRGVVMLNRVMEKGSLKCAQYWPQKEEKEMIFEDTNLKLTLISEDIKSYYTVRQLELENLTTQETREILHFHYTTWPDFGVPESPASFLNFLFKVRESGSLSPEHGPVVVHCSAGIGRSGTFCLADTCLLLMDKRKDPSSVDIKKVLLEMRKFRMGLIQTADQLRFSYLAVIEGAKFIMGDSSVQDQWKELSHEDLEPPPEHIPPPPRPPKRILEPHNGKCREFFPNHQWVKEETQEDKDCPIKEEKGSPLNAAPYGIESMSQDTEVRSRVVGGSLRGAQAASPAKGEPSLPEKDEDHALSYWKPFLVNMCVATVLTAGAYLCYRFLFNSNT
RESULT_TYPE: pKi
// scale note: pKi = -log10(conc_M); give the bare number

Prompt: Look up pKi for this compound: CC1(C)CC[C@]2(C(=O)O)CC[C@]3(C)C(=CC[C@@H]4[C@@]5(C)CC[C@H](OC(=O)/C=C/c6ccccc6)C(C)(C)[C@@H]5CC[C@]43C)[C@@H]2C1
Completion: 5.68

----------
molecular target: Low molecular weight phosphotyrosine protein phosphatase (Homo sapiens); experiment: Inhibition of human LMW-PTP IF1 using p-nitrophenylphosphate as substrate by spectrophotometry
RESULT_TYPE: IC50 (µM)

a: CCO[C@H]1CC[C@]2(C)[C@H]3CC=C4[C@@H]5CC(C)(C)CC[C@]5(C(=O)O)CC[C@@]4(C)[C@]3(C)CC[C@H]2C1(C)C
b: CC1(C)CC[C@]2(C(=O)O)CC[C@]3(C)C(=CC[C@@H]4[C@@]5(C)CC[C@H](OC(=O)/C=C/c6ccccc6)C(C)(C)[C@@H]5CC[C@]43C)[C@@H]2C1
Prompt: Just tell me: smaller IC50 value, a or b ? Write down the label of the entry you select.
Completion: b
(b: 6.9 µM, a: 16.4 µM)

----------
target: UniProtKB P18031; experiment: Non-competitive inhibition of purified human GST-tagged PTP-1B using p-nitrophenylphosphate as substrate by double-reciprocal plot method
RESULT_TYPE: Ki (µM)
Value expressed in µM; do not type the unit.

Prompt: Look up Ki for this compound: CCO[C@H]1CC[C@]2(C)[C@H]3CC=C4[C@@H]5CC(C)(C)CC[C@]5(C(=O)O)CC[C@@]4(C)[C@]3(C)CC[C@H]2C1(C)C
Completion: 4.8
